Target: KRAS G12V (Homo sapiens, UniProt P01116, G12V)
Construct: SW620-KRAS (G12V)-HiBit-KI cell (Pharmaron); host or cells: SW620-KRAS (G12V)-HiBit-KI cells (HiBiT knock-in at the endogenous KRAS locus)
Sequence (P01116 1-188 isoform P01116-2 G12V): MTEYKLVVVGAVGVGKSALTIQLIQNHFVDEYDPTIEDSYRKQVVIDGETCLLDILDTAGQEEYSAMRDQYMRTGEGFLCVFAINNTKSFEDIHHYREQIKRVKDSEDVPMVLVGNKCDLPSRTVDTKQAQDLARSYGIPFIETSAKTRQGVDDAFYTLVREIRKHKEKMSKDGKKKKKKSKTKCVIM
Experiment: KRAS G12V HiBit assay
Assay type: cell-based
Conditions: SW620-KRAS (G12V)-HiBit-KI cells, compound treatment for 24 hours, class symbols
EXPERIMENTAL READOUT: DC50

Would you please look over these solved cases?
{"columns": ["COMPOUND", "EXPERIMENTAL READOUT", "MEAS VALUE"],
 "data": [
  ["C#Cc1c(F)ccc2cc(O)cc(-c3ncc4c(N5CCC[C@@](C)(O)C5)nc(OCC5(CN6CCN(CC7CCN(c8ccc9c(c8)C(=O)N(C8CCC(=O)NC8=O)C9=O)CC7)CC6)CC5)nc4c3F)c12 (stereo partly shown) [Compound 50]", "DC50", "< 10 nM"],
  ["C#Cc1c(F)ccc2cc(O)cc(-c3ncc4c(N5CCC[C@@](C)(O)C5)nc(OC[C@]56CCCN5[C@H](COC(=O)N5CCC(CN7CCC(c8ccc9c(c8)n(C)c(=O)n9C8CCC(=O)NC8=O)CC7)CC5)CC6)nc4c3F)c12 (stereo partly shown) [Compound 134]", "DC50", "< 10 nM"],
  ["CCc1c(F)ccc2cc(O)cc(-c3ncc4c(N5CCC[C@@](C)(O)C5)nc(OC[C@@]56CCCN5[C@H](COC(=O)N5CC7CC(C5)C7CN5CCC(c7ccc8c(c7)n(C)c(=O)n8C7CCC(=O)NC7=O)CC5)CC6)nc4c3F)c12 (stereo partly shown) [Compound 400]", "DC50", "< 10 nM"]
]}

// next entry
// field: DC50; key: CCc1c(F)ccc2cc(O)cc(-c3ncc4c(N5CCC[C@@](C)(O)C5)nc(OC[C@@]56CCCN5[C@H](CN5CCC(OCCCc7ccc8c(c7)n(C)c(=O)n8C7CCC(=O)NC7=O)CC5)CC6)nc4c3F)c12 (stereo partly shown) [Compound 486] ; value = > 100 nM
